Sourced from PubChem BioAssay (Tox21)

experiment: qHTS assay to identify small molecule antagonists of the estrogen related receptor (ERR) signaling pathway from Tox21 library - cell viability counter screen (AID 1224834); conditions: ERR reporter cells viability, CellTiter-Fluor, 17.5 h; series mostly up to 92.4 µM; note: nearly all actives have a fitted effect of over 30% in size
Inconclusive results are not listed. Activity calls are given as the source filed them. Calls come from the whole dose curve; as a rule, active = well fitted cell-killing curve with a large enough effect in the repeat runs; inconclusive = weak or mixed curves; inactive = flat fitted curve, though single readings scatter.
Select the matching outcome among y = active, n = inactive

[
  {
    "compound": "O=C1c2ccccc2C(=O)N1CCc1noc(-c2ccc(CN3CCCCCC3)s2)n1",
    "classAssignment": "y"
  },
  {
    "compound": "CC(C)=CCC1C(=O)N(c2ccccc2)N(c2ccccc2)C1=O",
    "classAssignment": "n"
  }
]

Challenge: GET /call?item= `CCc1ccccc1` returns the recorded outcome of this test.
Response given: n

Challenge: GET /call?item= `c1ccc2c(c1)CCc1ccccc1N2` returns the recorded outcome of this test.
Response given: n

Challenge: GET /call?item= CN1C(=O)N(c2ccccc2Br)Cc2cnc(Nc3ccc4c(c3)OCC(CO)O4)nc21 (stereo not drawn) returns the recorded outcome of this test.
Response given: y

Challenge: GET /call?item= `FC(F)(F)c1ccccc1Cl` returns the recorded outcome of this test.
Response given: n

Challenge: GET /call?item= `O=c1[nH]c2ccc(Cl)cc2o1` returns the recorded outcome of this test.
Response given: n

Challenge: GET /call?item= `CC1(C)[C@H](C(=O)O)N2C(=O)C[C@H]2S1(=O)=O` returns the recorded outcome of this test.
Response given: n

Challenge: GET /call?item= `CCCC(C(=O)OCCN(CC)CC)(c1ccccc1)c1ccccc1` returns the recorded outcome of this test.
Response given: y

Challenge: GET /call?item= `Cc1cc(O)ccc1O` returns the recorded outcome of this test.
Response given: y

Challenge: GET /call?item= `O=C=Nc1ccc(Cl)c(Cl)c1` returns the recorded outcome of this test.
Response given: n

Challenge: GET /call?item= CCCCC(CC)CN (stereo not drawn) returns the recorded outcome of this test.
Response given: n

Challenge: GET /call?item= `CC(=O)N/N=C/c1ccc([N+](=O)[O-])o1` returns the recorded outcome of this test.
Response given: n

###

assay: A CellTox Green Cytotoxicity Assay to monitor cytotoxicity in HEK293 cells - 40 hour (AID 1224871); conditions: CellTox Green fluorescence; series mostly up to 76.8 µM; note: nearly all actives have a fitted effect of over 45% in size; note: potency is the fitted concentration of half-maximal effect
Records with an inconclusive call do not appear. Activity calls are given as the source filed them. The call rests on the fitted dose curve; in most records, active means well fitted activation curve with a large enough effect in the repeat runs; inconclusive means weak or mixed curves; inactive means flat fitted curve, though single readings scatter.
measuredMetric: Potency

Answered examples (5):
[
  {
    "molecule": "N#[N+]c1ccc2c(S(=O)(=O)[O-])cccc2c1O",
    "Potency": "inactive"
  },
  {
    "molecule": "OCCN1CCN(CCCN2c3ccccc3Sc3ccc(Cl)cc32)CC1",
    "Potency": "26.8 µM (active)"
  },
  {
    "molecule": "C=C/C(C)=C/C/C=C(\\C)CCC=C(C)C",
    "Potency": "inactive"
  },
  {
    "molecule": "CCCCCCCCCI",
    "Potency": "inactive"
  },
  {
    "molecule": "CCCCCCCCC(CCCCCC)C(=O)O (stereo not given)",
    "Potency": "inactive"
  }
]

Challenge: Give its Potency value. Item: c1cc(N(CC2CO2)CC2CO2)ccc1Cc1ccc(N(CC2CO2)CC2CO2)cc1 (stereo not given)
Response given: 49 µM (active)

Challenge: Give its Potency value. Item: `N#CCc1ccc(Cl)cc1Cl`
Response given: inactive

Challenge: Give its Potency value. Item: `COc1ncnc(NS(=O)(=O)c2ccc(N)cc2)c1OC`
Response given: inactive

Challenge: Give its Potency value. Item: `C[C@@H](CN(C)C)CN1c2ccccc2Sc2ccccc21`
Response given: 16.9 µM (active)

Challenge: Give its Potency value. Item: `O=C(O)CCCCCCCCCCCBr`
Response given: inactive

Challenge: Give its Potency value. Item: `O=C(Nc1cccc2c(=O)cc(-c3nn[nH]n3)oc12)c1ccc(OCCCCc2ccccc2)cc1`
Response given: inactive

Challenge: Give its Potency value. Item: `Oc1cccc(Nc2ccccc2)c1`
Response given: inactive

Challenge: Give its Potency value. Item: `C[C@@H](O)[C@H]1C(=O)N2C(C(=O)O)=C([C@H]3CCCO3)S[C@H]12`
Response given: inactive

Challenge: Give its Potency value. Item: `CO[C@]1(NC(=O)CSC(F)F)C(=O)N2C(C(=O)O)=C(CSc3nnnn3CCO)CO[C@H]21`
Response given: inactive

Challenge: Give its Potency value. Item: `CC(=O)c1ccc([N+](=O)[O-])cc1`
Response given: inactive

Challenge: Give its Potency value. Item: `CN1C(=O)OC(C)(C)C1=O`
Response given: inactive

Challenge: Give its Potency value. Item: `O=c1[nH]c2ccc(Cl)cc2o1`
Response given: inactive

Challenge: Give its Potency value. Item: `COc1cc(Nc2c(C#N)cnc3cc(OCCCN4CCN(C)CC4)c(OC)cc23)c(Cl)cc1Cl`
Response given: 21.3 µM (active)

Challenge: Give its Potency value. Item: `O=[N+]([O-])c1cc(C2CCCCC2)c(O)c([N+](=O)[O-])c1`
Response given: inactive
